Sourced from ChEMBL document CHEMBL4177541

Tested on: Escherichia coli
Test: Antimicrobial activity against Escherichia coli W3110 incubated for 20 hrs by CLSI protocol based method
Assay type: functional
Details: W3110, 20 h
ENDPOINT: MIC

// solved cases for MIC follow
[[record]]
molecular_string = "[Br-].c1cc[n+](CCc2c[nH]c3ccccc23)cc1"
target_or_test_system = "Escherichia coli"
endpoint = "MIC"
assay_result = "> 100 µg/mL"

[[record]]
molecular_string = "CC1(C)S[C@@H]2[C@H](NC(=O)[C@H](N)c3ccccc3)C(=O)N2[C@H]1C(=O)O"
target_or_test_system = "Escherichia coli"
endpoint = "MIC"
assay_result = "4 µg/mL"

[[record]]
molecular_string = "Brc1cc(Br)c[n+](CCc2c[nH]c3ccccc23)c1.[Br-]"
target_or_test_system = "Escherichia coli"
endpoint = "MIC"
assay_result = "> 100 µg/mL"

[[record]]
molecular_string = "[Br-].c1ccc2c(CC[n+]3cccc(-c4c[nH]c5ccccc45)c3)c[nH]c2c1"
target_or_test_system = "Escherichia coli"
endpoint = "MIC"
assay_result = "> 100 µg/mL"


Alright, here's another compound for you.
INPUT: Give the observed MIC of [Br-].c1ccc2c(CC[n+]3cc(-c4c[nH]c5ccccc45)cc(-c4c[nH]c5ccccc45)c3)c[nH]c2c1 for Escherichia coli.
OUTPUT: > 100 µg/mL

###

I'd be grateful if you could share measured IC50 for these entries.
Tested on: P388
Assay: Cytotoxicity against mouse P388 cells assessed as reduction in cell viability by MTT assay
Assay type: functional, cell-based
Give bare numbers, in µM.

[[record]]
molecular_string = "[Br-].c1cc[n+](CCc2c[nH]c3ccccc23)cc1"
assay_result = 53


Give measured IC50 for every item shown.
1. [Br-].c1ccc2c(CC[n+]3cc(-c4c[nH]c5ccccc45)cc(-c4c[nH]c5ccccc45)c3)c[nH]c2c1
2. Brc1cc(Br)c[n+](CCc2c[nH]c3ccccc23)c1.[Br-]
3. [Br-].c1ccc2c(CC[n+]3cccc(-c4c[nH]c5ccccc45)c3)c[nH]c2c1

OUTPUT:
[1, 76, 50]

###

System: Candida albicans
Test: Antimicrobial activity against Candida albicans incubated for 24 hrs by CLSI protocol based method
Assay type: functional
ENDPOINT: MIC (µg/mL)
Give bare numbers, in µg/mL.

[[record]]
molecular_string = "[Br-].c1cc[n+](CCc2c[nH]c3ccccc23)cc1"
assay_result = 100

[[record]]
molecular_string = "Brc1cc(Br)c[n+](CCc2c[nH]c3ccccc23)c1.[Br-]"
assay_result = 100

[[record]]
molecular_string = "[Br-].c1ccc2c(CC[n+]3cc(-c4c[nH]c5ccccc45)cc(-c4c[nH]c5ccccc45)c3)c[nH]c2c1"
assay_result = 12.5

[[record]]
molecular_string = "[Br-].c1ccc2c(CC[n+]3cccc(-c4c[nH]c5ccccc45)c3)c[nH]c2c1"
assay_result = 100


Alright, here's another compound for you.
INPUT: Give the observed MIC of CC1(C)S[C@@H]2[C@H](NC(=O)[C@H](N)c3ccccc3)C(=O)N2[C@H]1C(=O)O for Candida albicans.
OUTPUT: 100
